Target: purified recombinant full-length 2N4R wild-type (WT) tau (Homo sapiens)
Sequence (P10636 1-441 isoform P10636-8): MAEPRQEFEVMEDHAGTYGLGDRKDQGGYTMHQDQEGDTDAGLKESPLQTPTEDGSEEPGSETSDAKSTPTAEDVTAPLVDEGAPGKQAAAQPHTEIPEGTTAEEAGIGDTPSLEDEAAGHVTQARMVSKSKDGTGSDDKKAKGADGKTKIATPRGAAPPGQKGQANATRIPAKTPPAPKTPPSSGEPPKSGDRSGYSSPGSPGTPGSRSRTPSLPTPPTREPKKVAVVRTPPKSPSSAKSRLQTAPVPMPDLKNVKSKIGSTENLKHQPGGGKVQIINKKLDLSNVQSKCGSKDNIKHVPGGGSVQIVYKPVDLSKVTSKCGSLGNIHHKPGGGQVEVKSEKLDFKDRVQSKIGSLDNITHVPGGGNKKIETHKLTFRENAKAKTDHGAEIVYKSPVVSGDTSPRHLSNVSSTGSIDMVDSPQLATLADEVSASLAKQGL
Assay: Surface plasmon resonance binding to immobilized WT tau
Conditions: read-out: Kd, binding to purified WT tau protein (SPR); steady-state, 25 °C, 1 nM to 5 μM
Measure: pKd
Lab note — pKd values are minus log10 of concentrations in M.

Ask: Which measured pKd belongs to `CC(C)c1ccc2c(c1)c(SC(C)(C)C)c(CC(C)(C)C(=O)O)n2Cc1ccc(Cl)cc1` , tested on purified recombinant full-length 2N4R wild-type (WT) tau (Homo sapiens)?
Result: 6.75
